Biological target: T1, human GIP receptor (human, UniProt P48546 22-466)
T1 sequence (looked up): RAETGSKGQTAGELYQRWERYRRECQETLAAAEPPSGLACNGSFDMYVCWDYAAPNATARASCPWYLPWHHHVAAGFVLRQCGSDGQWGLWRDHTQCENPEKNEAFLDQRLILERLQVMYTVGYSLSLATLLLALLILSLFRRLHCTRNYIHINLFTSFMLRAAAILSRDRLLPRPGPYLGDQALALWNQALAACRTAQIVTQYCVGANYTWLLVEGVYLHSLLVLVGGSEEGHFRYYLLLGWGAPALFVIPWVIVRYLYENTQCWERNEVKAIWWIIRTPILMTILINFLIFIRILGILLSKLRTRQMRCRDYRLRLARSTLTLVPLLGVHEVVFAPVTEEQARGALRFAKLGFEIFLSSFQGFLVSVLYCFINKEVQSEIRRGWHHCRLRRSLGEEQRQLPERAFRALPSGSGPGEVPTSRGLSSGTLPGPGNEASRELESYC
Experiment: cell-based or functional assay
Starred links: 1 amine or outer side, 2 acyl side, 3 side chain; linkers in the order of their positions; H or OH if unused. Non-standard residues stand in square brackets, D forms with d. Groups on a side chain read outwards from the residue. *: point of attachment. C20 diacid = O=C(O)CCCCCCCCCCCCCCCCCCC(=O)*; γGlu = O=C(O)[C@H](CCC(=O)[*:2])N[*:1]; Aib = CC(C)(N)C(=O)O
Field: EC50, hGIP-R level of cAMP (HEK293 cells expressing human GIP R). Provide a value for each of the binders that follow.
Answers are plain numbers, in pM.

Sample answers from the record:
H-Y[Aib]EGTFISDYSIELDKIAQRAFIEWLLAQGPSSGAPPPSK([Peg3-Peg3-γGlu-C20 diacid])-NH2 [Compound 28]    7
H-Y[Aib]EGTFISDYSK([Peg3-Peg3-γGlu-C20 diacid])ELDKIAQRAFIEWLLAQGPSSGAPPPS-NH2 [Compound 35]    8
H-Y[Aib]EGTFISDYSIELEKIAQRAFVEWLLAQK([Peg3-Peg3-γGlu-C20 diacid])-NH2 [Compound 14]    24

I would be grateful if you could provide EC50, hGIP-R level of cAMP (HEK293 cells expressing human GIP R) for each of the following entries.
1. YAEGTFISDYSIELDKKAQRAFVEWLLAQGPSSGAPPPS (Aib at 2; Lys 17 side chain acylated: K((19-Carboxy-nonadecanoyl)-[(Piperazine-1-yl)-acetyl]-Peg3-Peg3); C-terminal amide (-NH2)) [Compound 20]
2. H-Y[Aib]EGTFISDYSIELDKIAQRAFIEWLLAGPSSGAPPPSK([Peg3-Peg3-γGlu-C20 diacid])-NH2 [Compound 23]

1: 7; 2: 10
